Test system: B6C3F1 mice, intracerebral ependymoblastoma, median survival T/C
Test: NCI In Vivo Anticancer Drug Screen. Data for tumor model Ependymoblastoma (intracerebral) in B6C3F1 mice
Conditions: endpoint: median survival time; dose: 50.0 mg/kg/injection; schedule: Q01DX005 (ip); vehicle: Klucel (hydroxypropylcellulose) (HPC); higher = longer survival
Method: The antitumor activity of compounds was measured in mice bearing transplantable tumors. Survival or tumor size were measured and the results are expressed as the measurement made in the treated group (T) divided by the measurement made in the vehicle treated control group (C). The tumor model used in this assay is Ependymoblastoma (intracerebral) in B6C3F1 mice
Inconclusive results and toxic doses are left out.
reported.property: T/C

Hello, I am looking for reported T/C with B6C3F1 mice, intracerebral ependymoblastoma, median survival T/C for CC(=O)OCC1OC(n2ccc(N)nc2=O)C(OC(C)=O)C1OC(C)=O (centres undefined) . Could you help?
98 % of control

Param item: "COc1nc(C(Cl)(Cl)Cl)c(Cl)c(OC)c1Cl"
107 % of control

Param item: "O=c1ccc2ccccc2o1"
108 % of control

Param item: "CC(=O)Nc1ccc(/C=N/NC(N)=S)cc1"
93 % of control
